B1: POU domain, class 2, transcription factor 2, residues 200 to 269; numbered along this chain, P09086 (parent)
chain: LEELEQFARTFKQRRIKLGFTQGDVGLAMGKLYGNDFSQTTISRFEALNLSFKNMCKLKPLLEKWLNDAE

Variants of: B1
Test: abundance fitness (aPCA) (normalised: wild type 0, dead -1); higher = more abundant; growth selection in yeast, the domain comes from the species named
Conditions: Homo sapiens
Assignment: determine reported abundance fitness for the given variants.
Reply with the value as a number alone.

Look up and report measured abundance fitness for this entry: R15P
-1.16

Identify measured abundance fitness corresponding to K59I
0.001

Please give measured abundance fitness of the following entry: N49C
0.012

Report abundance fitness, nothing else, for this variant: Q22R
-0.11

Given G30R , respond with its abundance fitness.
-0.063

Read the entry L62D and write its reported abundance fitness.
-0.999

Answer with the recorded abundance fitness for the variant listed here: V25Q
-1.03

Item S51V : provide abundance fitness
-0.507

Give abundance fitness for L61D
-0.006

Name the recorded abundance fitness of the item N35Y in your answer.
0

Give me measured abundance fitness, please, for this variant: C56R
0.014

Respond only with abundance fitness recorded for A47P
-0.641

Provide abundance fitness value for the following variant: D68P
-0.349

Give the value of abundance fitness reported for the following: Q13W
-0.172

Determine its reported abundance fitness: S38C
-0.023

Annotate the variant F11D with its measured abundance fitness.
-0.565

Identify measured abundance fitness associated with L18Y
-0.16

Give abundance fitness for L61M
-0.031

For R14G , write its abundance fitness.
-0.021

Give the measured abundance fitness for L1I
-0.11

Tell me abundance fitness reported for D36R
-0.034

Determine from records and report abundance fitness for L18W
-0.216
